Just for reference, paper PMC10836395 is where these values come from.

Please go through the items and note down their log10 Ki.
assay.system: CATPO T188F variant (Scytalidium thermophilum (Humicola insolens), UniProt M4GGR5, T207F)
Sequence (M4GGR5 entry or part of it T207F): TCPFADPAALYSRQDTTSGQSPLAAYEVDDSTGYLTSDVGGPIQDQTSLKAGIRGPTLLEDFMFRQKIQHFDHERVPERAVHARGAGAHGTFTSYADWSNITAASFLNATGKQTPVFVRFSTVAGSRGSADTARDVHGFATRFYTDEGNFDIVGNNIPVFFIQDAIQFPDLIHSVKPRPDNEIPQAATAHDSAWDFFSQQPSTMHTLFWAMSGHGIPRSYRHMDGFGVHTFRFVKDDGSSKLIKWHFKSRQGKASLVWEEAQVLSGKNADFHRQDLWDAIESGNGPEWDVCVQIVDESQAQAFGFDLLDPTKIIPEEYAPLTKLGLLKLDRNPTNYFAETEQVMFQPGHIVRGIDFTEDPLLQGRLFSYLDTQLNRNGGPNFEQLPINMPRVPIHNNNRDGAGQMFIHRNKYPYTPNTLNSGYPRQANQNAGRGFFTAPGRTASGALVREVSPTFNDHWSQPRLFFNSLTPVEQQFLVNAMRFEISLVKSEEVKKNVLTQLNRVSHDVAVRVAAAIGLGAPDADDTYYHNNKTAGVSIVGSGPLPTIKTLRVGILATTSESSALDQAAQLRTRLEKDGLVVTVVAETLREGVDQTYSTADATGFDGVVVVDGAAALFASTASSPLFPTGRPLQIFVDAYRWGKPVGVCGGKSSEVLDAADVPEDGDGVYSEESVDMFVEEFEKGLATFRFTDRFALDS
assay.method.text: biochemical
# values: log10(Ki), units mM

Cc1ccc(O)c(O)c1
1.65
Oc1cccc(O)c1O
1.81
CC(C)(C)c1ccc(O)c(O)c1
1.77
Nc1nc[nH]n1
1.73
Oc1ccc(O)cc1 [Hydroquinone, p-hydroquinone]
1.88

Here is the next item to consider.
# input State its log10 Ki on CATPO T188F variant (Scytalidium thermophilum (Humicola insolens), UniProt M4GGR5, T207F): O=C(NO)c1ccccc1O [Salicylhydroxamic acid, salicylhydroxamic acid]
# output 0.74

* * *

assay.system: CATPO E484A variant (Scytalidium thermophilum (Humicola insolens), UniProt M4GGR5, E503A)
assay.method.text: biochemical
measured.property: pKi
Answers are plain numbers, as −log10 of the molar value.

Oc1cccc(O)c1O
1.15
Nc1nc[nH]n1
1.19
Oc1ccc(O)cc1 [Hydroquinone, p-hydroquinone]
1.09
CC(C)(C)c1ccc(O)c(O)c1
1.17
Cc1ccc(O)c(O)c1
1.26

Here is the next item to consider.
# input Please look up its pKi: O=C(NO)c1ccccc1O [Salicylhydroxamic acid, salicylhydroxamic acid]
# output 2.17

* * *

assay.system: CATPO T188F variant (Scytalidium thermophilum (Humicola insolens), UniProt M4GGR5, T207F)
Format: biochemical
Marks after values point to notes of the source that are not given here.
measured.property: k cat/K m

Record excerpt, results attached:
Oc1cccc(O)c1O [Pyrogallol, pyrogallol]
3930 ± 250 s^−1 M^−1 (×10^2)
CCn1c(=NN=c2sc3cc(S(=O)(=O)O)ccc3n2CC)sc2cc(S(=O)(=O)O)ccc21 [ABTS]
270 ± 25 s^−1 M^−1 (×10^2)
CC(C)(C)c1ccc(O)c(O)c1 [1,4-tert-Butylcatechol, 4-tert-butylcatechol]
5230 ± 145 s^−1 M^−1 (×10^2)

Each molecule below has a recorded value; state its k cat/K m.
1. Oc1ccc(O)cc1 [Hydroquinone, p-hydroquinone]
2. Cc1ccc(O)c(O)c1 [4-Methylcatechol, 4-methylcatechol]

# output
1. 530 ± 65 s^−1 M^−1 (×10^2)
2. 6570 ± 560 s^−1 M^−1 (×10^2)

# input Please look up its k cat/K m: Oc1ccccc1O [Catechol, catechol]
# output 10200 ± 220 s^−1 M^−1 (×10^2)

* * *

assay.system: CATPO E484D variant (Scytalidium thermophilum (Humicola insolens), UniProt M4GGR5, E503D)
Sequence (M4GGR5 entry or part of it E503D): as the sequence (M4GGR5 entry or part of it T207F) above
assay.method.text: biochemical
measurement.context: catechol oxidation by E484D; read-out: K i
Please go through the items and note down their Ki.
Answers are plain numbers, in mM.

Record excerpt, results attached:
[F-].[Na+] [NaF, sodium fluoride]
0.66
[N-]=[N+]=[N-].[Na+] [Sodium azide, sodium azide]
41

Here is the next item to consider.
# input Please look up its Ki: CCn1c(=NN=c2sc3cc(S(=O)(=O)O)ccc3n2CC)sc2cc(S(=O)(=O)O)ccc21
# output 12

* * *

assay.system: CATPO E484D variant (Scytalidium thermophilum (Humicola insolens), UniProt M4GGR5, E503D)
Format: biochemical
measurement.context: pH 7.0 (ABTS pH 5.0), 60°C
Please go through the items and note down their K m.
Give bare numbers, in mM.

Record excerpt, results attached:
Cc1ccc(O)c(O)c1 [4-Methylcatechol, 4-methylcatechol]
36
CC(C)(C)c1ccc(O)c(O)c1 [1,4-tert-Butylcatechol, 4-tert-butylcatechol]
38

Each compound below has a recorded value; state its K m.
1. Oc1ccccc1O [Catechol, catechol]
2. CCn1c(=NN=c2sc3cc(S(=O)(=O)O)ccc3n2CC)sc2cc(S(=O)(=O)O)ccc21 [ABTS]
3. Oc1ccc(O)cc1 [Hydroquinone, p-hydroquinone]
4. Oc1cccc(O)c1O [Pyrogallol, pyrogallol]

# output
1. 35
2. 53
3. 46
4. 40
